B1: DLC1 (parent)
chain: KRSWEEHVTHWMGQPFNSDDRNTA

# Variants of: B1
# PROCEDURE_DETAILS: protein stability index of a GFP-peptide fusion (GPS, HEK-293T) (PSI 1-6); higher = more stable;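 further: lentivirally expressed fusions sorted by FACS into six bins by GFP to DsRed ratio, PSI derived from sequencing read proportions per bin multiplied by bin number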
# EXPERIMENTAL_CONTEXT: c terminus: a fixed tail appended
In this section we review reported protein stability index values for a set of variants.
Respond numerically, and do not add a unit to the figure.

Noted for `H7D` : its protein stability index reads 3.68
